System: Substrate oligonucleotide SEQ ID NO:30
Assay: RNase testing of commercially obtained reagents, visual detection
Assay type: biochemical
Set-up: key: +++ = maximum intensity; ++ = moderate intensity; + = faint but above background; − = negative (identical to background)
Conditions: reagent diluted 1:10 with Assay Buffer, 50 pmoles Substrate SEQ ID NO:30, 60 minutes at 37° C., UV
quantity name: Assay Results (RNase activity in reagent, relative signal intensity)

[
  {
    "molecule": "RNase A: commercial enzyme reagent from Ambion, tested for RNase activity (protein, UniProt P61823 27-150, looked up) Ribonuclease pancreatic: KETAAAKFERQHMDSSTSAASSSNYCNQMMKSRNLTKDRCKPVNTFVHESLADVQAVCSQKNVACKNGQTNCYQSYSTMSITDCRETGSSKYPNCAYKTTQANKHIIVACEGNPYVPVHFDASV",
    "result value": "+++"
  },
  {
    "molecule": "RNase 1: commercial enzyme reagent from Ambion, tested for RNase activity (protein, UniProt P21338 24-268, looked up) Ribonuclease I: LALQAKQYGDFDRYVLALSWQTGFCQSQHDRNRNERDECRLQTETTNKADFLTVHGLWPGLPKSVAARGVDERRWMRFGCATRPIPNLPEARASRMCSSPETGLSLETAAKLSEVMPGAGGRSCLERYEYAKHGACFGFDPDAYFGTMVRLNQEIKESEAGKFLADNYGKTVSRRDFDAAFAKSWGKENVKAVKLTCQGNPAYLTEIQISIKADAINAPLSANSFLPQPHPGNCGKTFVIDKAGY",
    "result value": "+++"
  },
  {
    "molecule": "Proteinase K: commercial enzyme reagent from Ambion, sold as RNase-free (protein, UniProt P06873 106-384, looked up) Proteinase K: AAQTNAPWGLARISSTSPGTSTYYYDESAGQGSCVYVIDTGIEASHPEFEGRAQMVKTYYYSSRDGNGHGTHCAGTVGSRTYGVAKKTQLFGVKVLDDNGSGQYSTIIAGMDFVASDKNNRNCPKGVVASLSLGGGYSSSVNSAAARLQSSGVMVAVAAGNNNADARNYSPASEPSVCTVGASDRYDRRSSFSNYGSVLDIFGPGTSILSTWIGGSTRSISGTSMATPHVAGLAAYLMTLGKTTAASACRYIADTANKGDLSNIPFGTVNLLAYNNYQA",
    "result value": "−"
  }
]
